Target: T1, TX1BP3, O14907
T1 sequence (O14907 10-122, limits assumed, looked up): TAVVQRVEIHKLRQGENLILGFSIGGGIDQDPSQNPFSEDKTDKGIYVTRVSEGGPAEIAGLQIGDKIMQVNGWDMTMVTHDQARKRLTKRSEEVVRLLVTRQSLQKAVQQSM
Test: holdup assay
Design: key: below the threshold = too weak to quantify, mostly under pKd 3.1 to 4
Conditions: plain residues with an end cap or a label only (N-terminal biotin on a linker: ttds)
Catalogue of binders with associated pKd
Property measured: pKd

>>> quantitative_result("FHPLGADSQV [SLC2A1, P11166]")
3.77
>>> quantitative_result("SKPTRRETEV [HPV35-E6, P27228]")
4.93
>>> quantitative_result("EMDRRPATVV [PLCB4, Q15147]")
3.73
>>> quantitative_result("DKDPHSETAL [TMIGD1, Q6UXZ0]")
4.03
>>> quantitative_result("NDPAWDETNL [ARHGEF7, Q14155;Q14155-1]")
5.76
>>> quantitative_result("KKYVDAETSL [SLC4A7, Q9Y6M7]")
3.82
>>> quantitative_result("RLPKIKETTV [FRMPD4, Q14CM0]")
4.57
>>> quantitative_result("PRVKPQRSKV [PPP1R13L, Q8WUF5]")
3.82
>>> quantitative_result("SSLQSLETSV [ATP2B4, P23634]")
4.62
>>> quantitative_result("VDFPPKESSL [ACVR2A, P27037]")
4.13
>>> quantitative_result("RHTTSTETAV [HPV30-E6, P36809]")
4.65
>>> quantitative_result("RLQRRRETQV [HPV18-E6, P06463]")
4.67
>>> quantitative_result("EVVHTPETSV [SLC16A3, O15427]")
3.84
>>> quantitative_result("PVRVCEETSL [OTULIN, Q96BN8]")
4.37
>>> quantitative_result("RPLPRKVSQL [DOCK4, Q8N1I0]")
4.41
>>> quantitative_result("QRQARSETLV [HPV59-E6, Q81964]")
4.05
